Recorded values, source ChEMBL document CHEMBL1955743.

Experiment: Half life in rat at 10 mg/kg, iv
Format: ADME, organism-based
Parameters: dose 10 mg/kg, route intravenous
Details: in vivo
Task for the reader: assign each of the following compounds its reported half-life.
A bare number is not enough; add the unit after it.

// query half-life value for entry C[C@@](CCc1ccc(-c2ccc(O)cc2)cc1)(C(=O)NO)S(C)(=O)=O
1.4 h

So what's the measured half-life for this one? C[C@@](CCc1ccc(-c2ccccc2)cc1)(C(=O)NO)S(C)(=O)=O
3.2 h

I'd like to know its half-life. The compound in question is C[C@@](CCc1ccc(-c2ccc(C#N)cc2)cc1)(C(=O)NO)S(C)(=O)=O
0.6 h

Returns the measured half-life for the input compound. Input: C[C@@](CCc1ccc(-c2ccc(O)cc2)cc1)(C(=O)O)S(C)(=O)=O
0.7 h

----------
Biological target: UniProt:P08254
Sequence (P08254 whole entry): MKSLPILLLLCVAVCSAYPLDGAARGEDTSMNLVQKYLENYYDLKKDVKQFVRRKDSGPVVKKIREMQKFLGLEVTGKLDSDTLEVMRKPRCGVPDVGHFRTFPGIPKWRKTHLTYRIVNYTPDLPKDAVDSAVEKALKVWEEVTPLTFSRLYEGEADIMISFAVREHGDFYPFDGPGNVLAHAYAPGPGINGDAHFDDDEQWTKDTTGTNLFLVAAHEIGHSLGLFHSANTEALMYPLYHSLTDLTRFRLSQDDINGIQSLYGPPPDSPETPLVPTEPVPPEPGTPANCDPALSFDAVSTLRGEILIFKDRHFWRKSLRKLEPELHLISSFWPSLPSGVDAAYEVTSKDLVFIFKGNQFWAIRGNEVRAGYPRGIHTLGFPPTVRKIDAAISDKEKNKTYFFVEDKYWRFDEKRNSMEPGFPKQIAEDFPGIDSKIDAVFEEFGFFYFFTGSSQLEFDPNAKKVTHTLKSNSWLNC
pKi: −log10 of the molar value.
observation.type: pKi

What does the data say about its pKi? Entry: C[C@@](CCc1ccc(-c2ccccc2)cc1)(C(=O)NO)S(C)(=O)=O
< 5.00

----------
observation.type: Ki

Enter reported Ki observed with Matrilysin (Homo sapiens, UniProt P09237) for C[C@@](CCc1ccc(-c2ccccc2)cc1)(C(=O)NO)S(C)(=O)=O
Sequence (P09237 whole entry): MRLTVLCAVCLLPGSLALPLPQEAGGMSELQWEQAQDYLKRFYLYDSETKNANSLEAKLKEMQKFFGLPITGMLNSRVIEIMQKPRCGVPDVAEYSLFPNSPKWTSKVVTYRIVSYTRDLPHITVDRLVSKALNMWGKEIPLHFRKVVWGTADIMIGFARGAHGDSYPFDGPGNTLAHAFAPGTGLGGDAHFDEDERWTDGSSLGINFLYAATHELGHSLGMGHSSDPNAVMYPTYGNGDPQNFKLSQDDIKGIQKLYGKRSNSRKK
> 10 µM

----------
Biological target: Matrix metalloproteinase-26 (Homo sapiens, UniProt Q9NRE1)
Sequence (Q9NRE1 whole entry): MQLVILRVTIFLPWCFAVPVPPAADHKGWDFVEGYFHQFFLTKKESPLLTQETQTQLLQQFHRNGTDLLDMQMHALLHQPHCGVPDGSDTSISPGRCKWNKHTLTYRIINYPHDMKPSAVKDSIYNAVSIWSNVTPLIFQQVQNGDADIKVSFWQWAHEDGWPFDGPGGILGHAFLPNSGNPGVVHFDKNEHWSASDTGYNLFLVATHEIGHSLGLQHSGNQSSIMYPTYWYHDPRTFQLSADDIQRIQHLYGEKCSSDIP
observation.type: Ki

Look at this molecule and give its reported Ki. C[C@@](CCc1ccc(-c2ccccc2)cc1)(C(=O)NO)S(C)(=O)=O
> 10 µM

----------
Target: Disintegrin and metalloproteinase domain-containing protein 17 (Homo sapiens)
Sequence (P78536 whole entry, the tested form may be a part): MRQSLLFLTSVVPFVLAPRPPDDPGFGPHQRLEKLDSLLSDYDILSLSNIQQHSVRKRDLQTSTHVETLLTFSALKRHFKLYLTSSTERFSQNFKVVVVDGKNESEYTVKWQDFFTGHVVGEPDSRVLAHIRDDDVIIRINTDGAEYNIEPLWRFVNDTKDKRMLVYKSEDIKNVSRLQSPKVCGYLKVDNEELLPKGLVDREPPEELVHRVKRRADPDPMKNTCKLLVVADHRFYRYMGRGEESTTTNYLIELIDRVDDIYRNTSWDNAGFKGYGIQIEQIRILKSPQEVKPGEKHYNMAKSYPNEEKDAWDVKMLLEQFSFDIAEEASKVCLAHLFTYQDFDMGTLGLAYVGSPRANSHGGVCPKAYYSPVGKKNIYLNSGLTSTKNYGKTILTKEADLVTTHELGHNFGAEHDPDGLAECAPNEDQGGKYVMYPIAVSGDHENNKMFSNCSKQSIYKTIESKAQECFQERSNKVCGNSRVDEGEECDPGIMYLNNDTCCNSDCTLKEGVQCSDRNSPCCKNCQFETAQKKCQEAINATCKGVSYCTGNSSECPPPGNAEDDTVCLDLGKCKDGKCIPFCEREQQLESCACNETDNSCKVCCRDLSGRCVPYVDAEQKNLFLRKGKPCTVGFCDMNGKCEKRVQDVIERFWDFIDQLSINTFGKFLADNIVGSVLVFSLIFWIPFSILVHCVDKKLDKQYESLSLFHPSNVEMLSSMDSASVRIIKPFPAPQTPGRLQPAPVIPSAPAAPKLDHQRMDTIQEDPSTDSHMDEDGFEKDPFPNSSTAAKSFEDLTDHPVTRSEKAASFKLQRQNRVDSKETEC
Assay: Inhibition of human TACE
pKi: −log10 of the molar value.
observation.type: pKi

Find the recorded pKi belonging to C[C@@](CCc1ccc(-c2ccccc2)cc1)(C(=O)NO)S(C)(=O)=O and report it.
< 5.00

----------
Target: UDP-3-O-acyl-N-acetylglucosamine deacetylase (Pseudomonas aeruginosa (strain ATCC 15692 / PAO1 / 1C / PRS 101 / LMG12228), UniProt P47205)
Sequence (P47205 whole entry): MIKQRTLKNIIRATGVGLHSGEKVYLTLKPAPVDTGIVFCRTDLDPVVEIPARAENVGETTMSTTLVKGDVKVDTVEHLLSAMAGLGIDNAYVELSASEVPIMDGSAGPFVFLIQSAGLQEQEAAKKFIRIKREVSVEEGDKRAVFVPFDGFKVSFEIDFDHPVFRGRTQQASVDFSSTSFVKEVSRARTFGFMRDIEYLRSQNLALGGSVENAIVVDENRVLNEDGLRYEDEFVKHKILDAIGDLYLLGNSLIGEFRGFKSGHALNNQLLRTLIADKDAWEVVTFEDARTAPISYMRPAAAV
Assay: Inhibition of Pseudomonas aeruginosa LpxC using UDP-3-O-(R-hydroxydecanoyl)-N-acetylglucosamine incubated for 30 mins prior to substrate addition measured after 60 mins by mass spectrophotometry
Exercise: for every item that follows, state its recorded pIC50.
In simple prose, pIC50 is minus the logarithm base ten of a concentration in moles per litre.

Reported pIC50 for CC(CCc1ccc(OC2CCCC2)cc1)(C(=O)NO)S(C)(=O)=O (racemic) : what is it?
8.00

Consider the compound shown here: C[C@@](CCc1ccc(-c2ccc(OCCCC(=O)O)cc2)cc1)(C(=O)NO)S(C)(=O)=O What is its recorded pIC50?
7.67

# get_value(readout='pIC50', item= C[C@@](CCc1ccc(-c2cccc(-n3cccn3)c2)cc1)(C(=O)NO)S(C)(=O)=O )
7.66

Entry under review: CC(CCc1ccc(OCc2ccccc2)cc1)(C(=O)NO)S(C)(=O)=O (racemic) . Reported pIC50?
8.29

----------
observation.type: Ki (µM)
Give your result in µM as a bare value.

State its Ki on Collagenase 3 (Homo sapiens, UniProt P45452): C[C@@](CCc1ccc(-c2ccccc2)cc1)(C(=O)NO)S(C)(=O)=O
7.73

----------
Target: UniProt:P14780
Sequence (P14780 whole entry): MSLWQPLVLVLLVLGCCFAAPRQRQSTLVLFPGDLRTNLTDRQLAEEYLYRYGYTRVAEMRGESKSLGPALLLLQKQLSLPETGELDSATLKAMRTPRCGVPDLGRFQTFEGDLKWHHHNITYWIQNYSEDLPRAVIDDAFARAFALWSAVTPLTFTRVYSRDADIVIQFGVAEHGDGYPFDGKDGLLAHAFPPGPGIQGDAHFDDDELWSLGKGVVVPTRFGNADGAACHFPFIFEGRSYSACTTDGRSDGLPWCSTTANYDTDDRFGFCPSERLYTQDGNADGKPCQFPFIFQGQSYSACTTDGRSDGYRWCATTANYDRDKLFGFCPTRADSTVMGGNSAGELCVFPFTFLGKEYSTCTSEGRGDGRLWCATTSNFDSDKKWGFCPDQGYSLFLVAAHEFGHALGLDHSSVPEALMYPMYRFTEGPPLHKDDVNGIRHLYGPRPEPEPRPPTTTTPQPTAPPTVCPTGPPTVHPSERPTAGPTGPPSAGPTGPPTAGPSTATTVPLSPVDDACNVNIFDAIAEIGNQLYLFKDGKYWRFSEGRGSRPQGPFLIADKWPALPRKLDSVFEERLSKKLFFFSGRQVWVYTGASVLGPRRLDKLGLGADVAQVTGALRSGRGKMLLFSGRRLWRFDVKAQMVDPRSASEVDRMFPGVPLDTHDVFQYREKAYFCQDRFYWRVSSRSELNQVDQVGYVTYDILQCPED
observation.type: Ki

Bench note: what Ki did C[C@@](CCc1ccc(-c2ccccc2)cc1)(C(=O)NO)S(C)(=O)=O show?
> 10 µM

----------
Molecular target: UDP-3-O-acyl-N-acetylglucosamine deacetylase (Pseudomonas aeruginosa (strain ATCC 15692 / PAO1 / 1C / PRS 101 / LMG12228))
Test: Inhibition of Pseudomonas aeruginosa LpxC using UDP-3-O-(R-hydroxydecanoyl)-N-acetylglucosamine incubated for 30 mins prior to substrate addition measured after 60 mins by mass spectrophotometry
pIC50: −log10 of the molar value.
For each entry below, report its pIC50 value.

For the molecule shown here, C[C@@](CCc1ccc(-c2ccc(Cl)cc2)cc1)(C(=O)NO)S(C)(=O)=O , give the reported pIC50.
> 8.98

For the molecule shown here, C[C@@](CCc1ccc(-c2ccc(O)cc2)cc1)(C(=O)O)S(C)(=O)=O , give the reported pIC50.
< 7.03

Name the reported pIC50 value associated with the molecule C[C@@](CCc1ccc(-c2ccc(C(N)=O)cc2)cc1)(C(=O)NO)S(C)(=O)=O
> 8.61
